# test_summary: xn = mol fraction of the nth substance listed
# study_conditions: 298.15 K; 103 kPa; x1 = 0.5
± gives the uncertainty stated by the source.
Listed here: items and their measured viscosity.

molecule	endpoint_value
C[Si]1(C)O[Si](C)(C)O[Si](C)(C)O[Si](C)(C)O1 + CCCCCCCCCCCCCC	1.815 ± 0.042 mPa·s

[Q] I am curious: what viscosity value has been reported for C[Si]1(C)O[Si](C)(C)O[Si](C)(C)O[Si](C)(C)O1 + CCCCCCCCCCCC ?
[A] 1.489 ± 0.042 mPa·s

[Q] I am curious: what viscosity value has been reported for C[Si]1(C)O[Si](C)(C)O[Si](C)(C)O[Si](C)(C)O1 + CCCCCCCCCCCCC ?
[A] 1.649 ± 0.042 mPa·s

[Q] I am curious: what viscosity value has been reported for C[Si]1(C)O[Si](C)(C)O[Si](C)(C)O[Si](C)(C)O1 + CCCCCCCCCC ?
[A] 1.183 ± 0.041 mPa·s

###

# test_summary: xn = mol fraction of the nth substance listed
# study_conditions: 298.15 K; 101 kPa; x2 = 0.4
I'd appreciate it if you marked entries true when viscosity is lower than 0.6 mPa·s and false when it is not.

compound	class_assignment
ClCCl + CCCCC	true

[Q] Report whether reported viscosity is lower than 0.6 mPa·s (strictly) for ClCCCl + c1ccccc1
[A] false

[Q] Report whether reported viscosity is lower than 0.6 mPa·s (strictly) for ClCCl + CCCO
[A] false

[Q] Report whether reported viscosity is lower than 0.6 mPa·s (strictly) for CC(=O)O + CS(C)=O
[A] false

[Q] Report whether reported viscosity is lower than 0.6 mPa·s (strictly) for ClCCl + CC(C)O
[A] true

###

# study_conditions: 303.15 K; 101 kPa
Listed here: items and their measured viscosity.
Unit mPa·s implied. Number only.

CCOC=O 0.378
CCCn1cc[n+](C)c1C.F[B-](F)(F)F 271.9
C1CCCCCC1 1.239

[Q] I am curious: what viscosity value has been reported for CCCCCC[n+]1ccn(C)c1.[I-] ?
[A] 1175

###

# test_summary: xn = mol fraction of the nth substance listed
# study_conditions: 298.15 K; 101 kPa; x2 = 0.6
± gives the uncertainty stated by the source.
property_measured: viscosity

compound	viscosity
ClCCl + CCCO	1.104 ± 0.01 mPa·s
ClCCl + CC(C)O	0.744 ± 0.008 mPa·s
ClCCl + CCCCC	0.255 ± 0.007 mPa·s
CC(=O)O + CS(C)=O	2.525 ± 0.025 mPa·s

[Q] I am curious: what viscosity value has been reported for ClCCCl + c1ccccc1 ?
[A] 0.601 ± 0.0061 mPa·s

###

# test_summary: xn = mol fraction of the nth substance listed
# study_conditions: 318.15 K; 103 kPa; x1 = 0.85
property_measured: viscosity (mPa·s)
Unit mPa·s implied. Number only.

Record excerpt, results attached:
compound	viscosity (mPa·s)
C[Si]1(C)O[Si](C)(C)O[Si](C)(C)O[Si](C)(C)O1 + CCCCCCCCCCCCCC	1.349
C[Si]1(C)O[Si](C)(C)O[Si](C)(C)O[Si](C)(C)O1 + CCCCCCCCCC	1.208
C[Si]1(C)O[Si](C)(C)O[Si](C)(C)O[Si](C)(C)O1 + CCCCCCCCCCCC	1.292

Lab note: next compound to report on.
[Q] I am curious: what viscosity value has been reported for C[Si]1(C)O[Si](C)(C)O[Si](C)(C)O[Si](C)(C)O1 + CCCCCCCCCCCCC ?
[A] 1.328
